target: dipeptidyl peptidase IV (DPP4) (Homo sapiens); construct: purchased Abcam; assay: Enzymatic inhibition assay, DPP4; type: biochemical; settings: recombinant DPP4, n = 3; picture: nM ± 95% CI
Sequence (P27487 whole entry, species assumed): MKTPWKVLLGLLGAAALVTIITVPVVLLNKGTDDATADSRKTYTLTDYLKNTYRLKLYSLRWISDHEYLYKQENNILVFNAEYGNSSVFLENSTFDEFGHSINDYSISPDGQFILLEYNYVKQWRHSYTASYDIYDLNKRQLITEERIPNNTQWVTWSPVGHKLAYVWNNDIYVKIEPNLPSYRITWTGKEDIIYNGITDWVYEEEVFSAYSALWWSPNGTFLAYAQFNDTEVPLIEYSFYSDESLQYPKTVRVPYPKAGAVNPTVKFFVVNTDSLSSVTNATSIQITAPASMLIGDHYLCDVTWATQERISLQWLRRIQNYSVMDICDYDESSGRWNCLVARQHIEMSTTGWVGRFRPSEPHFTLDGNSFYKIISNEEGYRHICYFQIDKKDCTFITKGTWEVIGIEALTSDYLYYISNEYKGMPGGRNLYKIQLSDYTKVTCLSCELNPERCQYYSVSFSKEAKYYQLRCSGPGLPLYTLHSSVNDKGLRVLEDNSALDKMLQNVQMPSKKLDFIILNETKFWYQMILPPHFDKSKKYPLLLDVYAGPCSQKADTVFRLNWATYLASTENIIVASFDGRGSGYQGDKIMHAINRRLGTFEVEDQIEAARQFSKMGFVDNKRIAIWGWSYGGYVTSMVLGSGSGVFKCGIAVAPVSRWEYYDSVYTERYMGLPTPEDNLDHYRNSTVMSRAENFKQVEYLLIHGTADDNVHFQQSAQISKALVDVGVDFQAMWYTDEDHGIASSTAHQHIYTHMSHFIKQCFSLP
MEASURED ENDPOINT: IC50 (nM)

a: N#C[C@@H]1CC(F)(F)CN1C(=O)CNC(=O)c1ccnc2c(OCCCNC(=O)CN3CCN(CC(=O)O)CCN(CC(=O)O)CCN(CC(=O)O)CC3)cccc12 [eFAP-6]
b: CN1/C(=C/C=C/C=C/C2=[N+](CCCCCC(=O)NCCCOc3cccc4c(C(=O)NCC(=O)N5CC(F)(F)C[C@H]5C#N)ccnc34)c3ccc(S(=O)(=O)[O-])cc3C2(C)C)C(C)(C)c2cc(S(=O)(=O)O)ccc21 [eFAP-7]
Would you let me know which has the greater IC50 value, a or b ? Returns: label corresponding to the selected item. b
(b: 612000 nM, a: 58600 nM)
